growth for assorted molecules
System: SK-MEL-2 melanoma
Experiment: NCI-60 one-dose screen, 48 h (100 = growth as untreated, 0 = no growth, -100 = all killed)
Settings: 10 µM unless noted
The panel holds about 83,000 compounds, 20% with a hit somewhere; the sample as a whole holds those more often.
Reply with just the number (in %).

Cc1ccc(P(=O)(O)O)cc1; 109
C[C@]12CCc3sc(Nc4ccc(OC(F)(F)F)cc4)nc3C1=CC[C@@H]1[C@@H]2CC[C@]2(C)C(=O)CC[C@@H]12; 61.8
CC(C)COC(=O)Cc1ccccc1; 113
C#Cc1cccc(Nc2nc(Cl)nc3cc(NC(=O)CF)ccc23)c1; 66
Cc1c(C)c(N)c(C)c(C)c1N; 15
COc1cc2c(cc1OC)-c1c3c(cc4c1[C@@H](C2)N(C)CC4)OCO3; 87.9

Alright, here's another molecule for you.
Q: Any idea what its growth is? The molecule is `N#CCc1ccc(CC#N)cc1`
Result: 99.4

These measurements were taken from PubChem BioAssay (NCI).
